target: His-tagged KRAS G12D protein (Homo sapiens, UniProt P01116, G12D); experiment: KRAS G12D TR-FRET Assay; settings: biotinylated KRPep-2d substrate, 10 μM GDP;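 note: europium anti-His antibody paired with streptavidin-d2 as FRET partners, initial 30 min incubation, then peptide 1 h and detection reagents 1 h, all at room temperature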
Sequence (P01116 1-188 isoform P01116-2 G12D): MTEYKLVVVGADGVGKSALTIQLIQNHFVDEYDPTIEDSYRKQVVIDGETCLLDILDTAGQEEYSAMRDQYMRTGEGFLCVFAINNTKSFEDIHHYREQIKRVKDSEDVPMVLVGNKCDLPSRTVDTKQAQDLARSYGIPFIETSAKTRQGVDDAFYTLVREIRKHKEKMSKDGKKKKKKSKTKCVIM
pIC50: −log10 of the molar value.
Respond with YES for pIC50 values of 6 and above, NO for values below.

- compound: "C[C@H](CN(C)C)Oc1nc(N2CCNCC2)c2cc(Cl)c(-c3cccc4sc(N)nc34)c(F)c2n1 [Example 69]"
  label-class: "NO"
- compound: "Nc1nc2c(-c3c(Cl)cc4c(N5C6CCNCC5CC6)nc(OC[C@@]56CCCN5C[C@H](F)C6)nc4c3F)ccc(F)c2s1 (single isomer, unassigned) [Example 32]"
  label-class: "YES"
- compound: "Nc1nc2c(-c3c(Cl)cc4c(N5CCNCC5)nc(OC[C@@H]5CCCN5)nc4c3F)cccc2s1 [Example 72]"
  label-class: "YES"
- compound: "CN1CCC[C@H]1COc1nc2c(F)c(-c3cccc4sc(N)nc34)c(Cl)cc2c(N2CCNCC2)c1C#N [Example 158]"
  label-class: "YES"
- compound: "Nc1nc2c(-c3c(Cl)cc4c(N5CC6CNCC5C6)nc(OC[C@@]56CCCN5C[C@H](F)C6)nc4c3F)ccc(F)c2s1 (single isomer, unassigned) [Example 29]"
  label-class: "YES"

---

# reported Avg 2 h Coupled Exchange IC50; entries follow
molecular target: GDP-bound KRAS protein (aa 1-169), containing both G12D and C118A amino acid substitutions (Homo sapiens, UniProt P01116, C118A/G12D); assay: KRAS G12D Coupled Nucleotide Exchange Assay; format: biochemical; details: 2 h compound pre-incubation; SOS-mediated nucleotide exchange, cRAF AlphaScreen readout;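 note: IC50 obtained by fitting the AlphaScreen signal with a four-parameter logistic curve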
Sequence (P01116 1-169 isoform P01116-2 G12D/C118A): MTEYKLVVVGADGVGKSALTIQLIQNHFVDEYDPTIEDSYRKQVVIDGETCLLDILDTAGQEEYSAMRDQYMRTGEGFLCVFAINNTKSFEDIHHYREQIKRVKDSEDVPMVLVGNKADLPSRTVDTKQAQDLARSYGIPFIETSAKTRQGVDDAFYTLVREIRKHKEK

- compound-structure-string: "CC(=O)N1CCC[C@H]1COc1nc(N2CCNCC2)c2cc(Cl)c(-c3cccc4sc(N)nc34)c(F)c2n1"
  Avg 2 h Coupled Exchange IC50, nM: 2530
- compound-structure-string: "CN1CC[C@H]1COc1nc(N2CCNCC2)c2cc(Cl)c(-c3cccc4sc(N)nc34)c(F)c2n1"
  Avg 2 h Coupled Exchange IC50, nM: 59
- compound-structure-string: "Nc1nc2c(-c3c(Cl)cc4c(N5CCNCC5)nc(OC[C@@H]5C[C@@H](F)CN5)nc4c3F)cccc2s1"
  Avg 2 h Coupled Exchange IC50, nM: 26
- compound-structure-string: "CN1CCC[C@H]1COc1nc(N2CCNC(=O)CC2)c2cc(Cl)c(-c3cccc4sc(N)nc34)c(F)c2n1"
  Avg 2 h Coupled Exchange IC50, nM: 172
- compound-structure-string: "Nc1nc2c(-c3c(F)cc4c(N5C[C@@H]6CC[C@H]5CN6)nc(OC[C@@]56CCCN5C[C@H](F)C6)nc4c3F)ccc(F)c2s1"
  Avg 2 h Coupled Exchange IC50, nM: 8
- compound-structure-string: "Nc1nc2c(-c3c(Cl)cc4c(N5CCNCC5)nc(N5CC(N6CC(F)C6)C5)nc4c3F)cccc2s1"
  Avg 2 h Coupled Exchange IC50, nM: 1010
- compound-structure-string: "Nc1nc2c(-c3ccc4c(N5[C@@H]6CC[C@H]5CNC6)nc(OC[C@@]56CCCN5C[C@H](F)C6)nc4c3)ccc(F)c2s1"
  Avg 2 h Coupled Exchange IC50, nM: 64
